Recorded relative viability, one value per entry.
System: HCC-44
Test Description: relative viability (nuclei count vs DMSO), 5 days (fraction); higher = more cells survive
Test Conditions: first compound 6.325 µM

| Compound | Test System | relative viability |
| --- | --- | --- |
| Cc1csc(=NC2CCCCC2)n1/N=C/c1ccc(O)c(O)c1O [MIM1] + N=C(N)NC(=N)NCCc1ccccc1 [Phenformin] (partner 250 µM) | HCC-44 | 0.154 |
| Cc1csc(=NC2CCCCC2)n1/N=C/c1ccc(O)c(O)c1O [MIM1] + Nc1ncn([C@H]2C[C@H](O)[C@@H](CO)O2)c(=O)n1 [Decitabine] (partner 2 µM) | HCC-44 | 0.479 |
| Cc1csc(=NC2CCCCC2)n1/N=C/c1ccc(O)c(O)c1O [MIM1] + C[C@@H](Oc1cc(-c2cnn(C3CCNCC3)c2)cnc1N)c1c(Cl)ccc(F)c1Cl [Crizotinib] (partner 1 µM) | HCC-44 | 0.391 |

* * *

Test system: H3255
Test Description: relative viability (nuclei count vs DMSO), 5 days (fraction); higher = more cells survive
Test Conditions: first compound 0.002 µM
Here the recorded relative viability is given for each entry.
Measurement Type: relative viability

| Molecule | Measurement Type | Numeric Readout |
| --- | --- | --- |
| CCNC(=O)c1noc(-c2cc(C(C)C)c(O)cc2O)c1-c1ccc(CN2CCOCC2)cc1 [Luminespib] + CC1(C)CCC(c2ccc(Cl)cc2)=C(CN2CCN(c3ccc(C(=O)NS(=O)(=O)c4ccc(N[C@H](CCN5CCOCC5)CSc5ccccc5)c(S(=O)(=O)C(F)(F)F)c4)cc3)CC2)C1 [Navitoclax] (partner 0.5 µM) | relative viability | 0.517 |
| CCNC(=O)c1noc(-c2cc(C(C)C)c(O)cc2O)c1-c1ccc(CN2CCOCC2)cc1 [Luminespib] + NC(=O)Nc1cc(-c2cccc(F)c2)sc1C(=O)N[C@H]1CCCNC1 [AZD7762] (partner 0.2 µM) | relative viability | 0.857 |
| CCNC(=O)c1noc(-c2cc(C(C)C)c(O)cc2O)c1-c1ccc(CN2CCOCC2)cc1 [Luminespib] + Cc1nc(NC(=O)N2CCC[C@H]2C(N)=O)sc1-c1ccnc(C(C)(C)C(F)(F)F)c1 [Alpelisib] (partner 2 µM) | relative viability | 0.775 |
| CCNC(=O)c1noc(-c2cc(C(C)C)c(O)cc2O)c1-c1ccc(CN2CCOCC2)cc1 [Luminespib] + CC(=O)c1c(C)c2cnc(Nc3ccc(N4CCNCC4)cn3)nc2n(C2CCCC2)c1=O [Palbociclib] (partner 0.5 µM) | relative viability | 0.325 |
| CCNC(=O)c1noc(-c2cc(C(C)C)c(O)cc2O)c1-c1ccc(CN2CCOCC2)cc1 [Luminespib] + O=C(CCCCCCC(=O)Nc1ccccc1)NO [Vorinostat] (partner 1 µM) | relative viability | 0.843 |
| CCNC(=O)c1noc(-c2cc(C(C)C)c(O)cc2O)c1-c1ccc(CN2CCOCC2)cc1 [Luminespib] + Cc1cc(Nc2cc(N3CCN(C)CC3)nc(Sc3ccc(NC(=O)C4CC4)cc3)n2)n[nH]1 [Tozasertib] (partner 0.1 µM) | relative viability | 0.7 |

* * *

Test system: HARA
Test Description: relative viability (nuclei count vs DMSO), 5 days (fraction); higher = more cells survive
Test Conditions: first compound 0.03162 µM

| Compound | Test System | relative viability |
| --- | --- | --- |
| Cc1cn(-c2cc(NC(=O)c3ccc(C)c(Nc4nccc(-c5cccnc5)n4)c3)cc(C(F)(F)F)c2)cn1 [Nilotinib] + Nc1nc2[nH]cc(CCc3ccc(C(=O)N[C@@H](CCC(=O)O)C(=O)O)cc3)c2c(=O)[nH]1 [Pemetrexed] (partner 0.2 µM) | HARA | 0.184 |
| Cc1cn(-c2cc(NC(=O)c3ccc(C)c(Nc4nccc(-c5cccnc5)n4)c3)cc(C(F)(F)F)c2)cn1 [Nilotinib] + C[C@@H](Oc1cc(-c2cnn(C3CCNCC3)c2)cnc1N)c1c(Cl)ccc(F)c1Cl [Crizotinib] (partner 1 µM) | HARA | 0.886 |
